ASSAY_METHOD_TEXT: Ratio of unbound drug level in mouse brain to plasma at 10 mg/kg, po
Type: ADME, organism-based
TEST_PARAMETERS: read-out: K(p,uu,brain)
MEASURE: Kp uu

* CC(C)n1cc(-c2cc(-c3ccc(CN4CCOCC4)cc3)cnc2N)nn1 | 0.76

----------
System: MDR1
ASSAY_METHOD_TEXT: Apparent permeability in MDCK cells harboring MDR1
Format: ADME, cell-based, Canis lupus familiaris
TEST_PARAMETERS: dog
MEASURE: Papp (×10⁻⁶ cm/s)

• CC(C)n1cc(-c2cc(-c3ccc(CN4CCOCC4)cc3)cnc2N)nn1 = 26.3
